experiment: log P determination by HPLC on reversed-phase column (C18), EEC Directive 79/831 Annex V.A8, acidic (formic acid); type: physicochemical; settings: HPLC method a), acetonitrile/water with formic acid
observed.property: chromatographic logP
Enter a number only.

Example compounds with recorded chromatographic logP:
Cn1nc(C(F)(F)C(F)(F)F)c(C(F)(F)F)c1-c1nc(-c2cccc(C(=O)NCc3ccccc3)c2)n[nH]1 [Ibg-1] = 3.8
Cn1nc(C(F)(F)C(F)(F)F)c(C(F)(F)F)c1-c1nnc(-c2cccc(C(=O)NC3CC3)c2)s1 [Iaj-1] = 3.72
Cn1nc(-c2c(C(F)(F)F)c(C(F)(F)C(F)(F)F)nn2C)nc1-c1cccc(C(=O)NCc2ccccc2)c1 [Ibh-2] = 4.16
Cn1nc(C(F)(F)C(F)(F)F)c(C(F)(F)F)c1-c1ncc(-c2cccc(C(=O)NC3(C#N)CC3)c2)s1 [Iaq-1] = 3.93
Cn1nc(C(F)(F)C(F)(F)F)c(C(F)(F)F)c1-c1coc(-c2ccc(Cl)c(C(=O)NC3(C#N)CC3)c2)c1 [Iac-1] = 4.02
Cn1nc(-c2cccc(C(=O)NCc3ccccc3)c2)nc1-c1c(C(F)(F)F)c(C(F)(F)C(F)(F)F)nn1C [Ibg-15] = 4.24
CN(C(=O)c1cccc(-c2cc(-c3c(C(F)(F)F)c(C(F)(F)C(F)(F)F)nn3C)nn2C)c1)C1CC1 [Iax-1] = 4.13
Cn1nc(C(F)(F)C(F)(F)F)c(C(F)(F)F)c1-c1noc(-c2ccc(Cl)c(C(=O)NC3CC3)c2)n1 [Ibe-1] = 4.16
Cn1nc(C(F)(F)C(F)(F)F)c(C(F)(F)F)c1-c1cc(-c2ccc(Cl)c(C(=O)NC3CC3)c2)no1 [Iap-1] = 4.06

Moving on to another compound below.
Prompt: Which chromatographic logP is reported for this compound? CN(C(=O)c1cccc(-c2cc(-c3c(C(F)(F)F)c(C(F)(F)C(F)(F)F)nn3C)n(C)n2)c1)C1CC1 [Iaw-1]
Completion: 3.94
